targetSystem: UniProt:Q14145
Sequence (Q14145 whole entry, looked up): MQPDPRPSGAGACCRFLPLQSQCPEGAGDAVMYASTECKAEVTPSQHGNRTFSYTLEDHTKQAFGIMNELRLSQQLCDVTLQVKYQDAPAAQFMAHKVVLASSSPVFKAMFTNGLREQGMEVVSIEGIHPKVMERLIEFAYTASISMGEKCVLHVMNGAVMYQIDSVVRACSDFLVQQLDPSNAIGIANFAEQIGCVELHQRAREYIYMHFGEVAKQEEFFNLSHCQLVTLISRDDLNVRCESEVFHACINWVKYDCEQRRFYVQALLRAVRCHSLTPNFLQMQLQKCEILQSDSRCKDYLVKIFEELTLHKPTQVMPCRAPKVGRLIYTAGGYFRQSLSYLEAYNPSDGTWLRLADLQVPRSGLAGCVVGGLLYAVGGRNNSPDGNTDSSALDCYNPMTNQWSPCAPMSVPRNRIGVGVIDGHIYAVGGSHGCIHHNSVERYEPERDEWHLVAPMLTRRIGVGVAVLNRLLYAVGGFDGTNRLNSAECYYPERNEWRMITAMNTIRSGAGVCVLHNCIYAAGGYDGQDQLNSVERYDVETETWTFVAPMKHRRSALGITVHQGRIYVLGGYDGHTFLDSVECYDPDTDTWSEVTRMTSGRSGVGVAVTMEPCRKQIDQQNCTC
assayNotes: Keap1-Nrf2 protein-protein interaction inhibitors, dose response, biochemical, fluorescence polarization, dry powder, set 2 (AID 651801)
assayConditions: Keap1 Kelch/FITC-Nrf2 peptide fluorescence polarization
Active and inactive are the calls of the source.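 The calls were made as follows: active = signal falling with dose and AC50 at most twice the top valid tested dose; inconclusive = flat fit with inhibition of 30 to 70%, or poor fit; inactive = the rest, plus effects in the rising direction.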
The reply should name one outcome from active, inactive

# count of solved cases: 5
compound	classLabel
Cc1cc(C)c(S(=O)(=O)Nc2cc(C(C(=O)OC(C)C)C(=O)C(F)(F)F)c(O)c3ccccc23)c(C)c1 (stereo not drawn)	active
O=C(O)Cc1ccccc1C(=O)N1CCc2ccccc2[C@H]1CN1C(=O)c2ccccc2C1=O	active
COC(=O)C(C(=O)OC)c1cc(NS(=O)(=O)c2c(C)cc(C)cc2C)c2ccccc2c1O	active
Cc1ccccc1S(=O)(=O)Nc1cc(C(C(=O)OC(C)C)C(=O)C(F)(F)F)c(O)c2ccccc12 (stereo not drawn)	active
O=C(O)[C@H]1CCCC[C@H]1C(=O)N1CCC2=C(CCCC2)C1CN1C(=O)c2ccccc2C1=O (stereo partly drawn)	inactive

Prompt: Field: outcome | Entry: Cc1ccc(S(=O)(=O)Nc2cc(C(C(=O)OC(C)C)C(=O)C(F)(F)F)c(O)c3ccccc23)cc1 (stereo not drawn)
Response: active

Prompt: Please indicate how the test categorized O=C(NCCc1ccccc1)c1ccccc1C(=O)NC[C@@H]1c2ccccc2CCN1C(=O)C1CCCCC1C(=O)O (stereo partly drawn) .
Response: inactive

Prompt: Dear colleague, could you share the recorded outcome for O=C(O)C1CCCCC1C(=O)N1CCc2ccccc2C1CN1Cc2ccccc2C1=O (stereo not drawn) when you have a moment?
Response: active

Prompt: Just curious, what result did O=C(O)C1CCCCC1C(=O)N1CCc2ccccc2C1CN1C(=O)[C@H]2CCCC[C@H]2C1=O (stereo partly drawn) get here?
Response: inactive

Prompt: Tell me the recorded outcome of this test for O=C(O)C1CCCCC1C(=O)N1CCc2ccccc2C1CN1C(=O)Cc2ccccc2C1=O (stereo not drawn) .
Response: inactive

Prompt: What did this assay record as the result for CC(C)OC(=O)C(C(=O)C(F)(F)F)c1cc(NS(=O)(=O)c2ccccc2)c2ccccc2c1O (stereo not drawn) ?
Response: active

Prompt: Outcome? O=C(NCCO)c1ccccc1C(=O)NC[C@@H]1c2ccccc2CCN1C(=O)C1CCCCC1C(=O)O (stereo partly drawn)
Response: inactive

Prompt: Please state the recorded outcome for this compound: `NC(=O)c1ccccc1C(=O)NC[C@@H]1c2ccccc2CCN1C(=O)[C@@H]1CCCC[C@@H]1C(=O)O`
Response: inactive

Prompt: Answer briefly: the call reported for O=C(O)[C@H]1C2C=CC(C2)[C@H]1C(=O)N1CCc2ccccc2C1CN1C(=O)c2ccccc2C1=O (stereo partly drawn) in this assay.
Response: inactive

Prompt: What was the test verdict on `Cc1ccc(S(=O)(=O)NC(=O)[C@@H]2c3ccccc3CCN2C(=O)[C@@H]2CCCC[C@@H]2C(=O)O)cc1` ?
Response: inactive

Prompt: Tell me the recorded outcome of this test for `O=C(NC[C@@H]1c2ccccc2CCN1C(=O)[C@@H]1CCCC[C@@H]1C(=O)O)c1ccc(CN2CCOCC2)cc1` .
Response: inactive

Prompt: Give the logged outcome of this assay for the following compound: Cc1ccc(S(=O)(=O)Nc2cc(C(C(=O)OC(C)C)C(=O)C(F)(F)F)c(O)c3ccccc23)c(C)c1 (stereo not drawn)
Response: active

Prompt: Please indicate how the test categorized `CC(=O)Nc1cc(NS(=O)(=O)c2c(C)cc(C)cc2C)c2ccccc2c1O` .
Response: active

The reported measurements were obtained from PubChem BioAssay AID651801.
